Test: photoluminescence quantum yield (fraction); solvent given as SMILES
Details: in Cc1ccccc1
experimental-endpoint: photoluminescence quantum yield

>>> value_observed("O=P1(c2ccccc2)c2cc(N3c4ccccc4Oc4ccccc43)ccc2-c2ccc(N3c4ccccc4Oc4ccccc43)cc21")
0.47
>>> value_observed("Cc1cc(C#N)ccc1N1c2ccccc2C(c2ccccc2)(c2ccccc2)c2ccccc21")
0.12
>>> value_observed("F[B-]1(F)n2c(Nc3cccc4cccnc34)ccc2C(c2ccccc2)=C2C=CC(Cl)=[N+]21")
0.04
>>> value_observed("COc1ccc(C2=C3C(C)=CC(C=Cc4ccc(C(=O)OC5C[C@H]6CCC5(C)C6(C)C)cc4)=[N+]3[B-](F)(F)n3c(C)cc(C)c32)cc1 (some centres undefined)")
0.41
